Tested on: 439559-082-T-J2-PDC spheroid viability;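 further: spheroids exposed to compounds for seven days before readout; 100% = DMSO vehicle control viability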
EXPERIMENTAL_PROTOCOL: Anticancer human tumor 439559-082-T-J2-PDC patient-derived colon adenocarcinoma cell line growth inhibition [POLQ]
COND: second compound 0.1 µM; first compound 0.316 µM; stronger effect = lower value; spheroids with HUVEC and MSC
Mark class 1 only when viability, T/C stays strictly below 90%. Values equal to the cut-off are class 0.

Q. viability, T/C under 90%? Item: CC1COCCN1c1cc(-c2ccnn2C)c2ccnc(-c3ccn[nH]3)c2n1 (stereo not given) + COC1C(OC(N)=O)C(O)C(Oc2ccc3c(O)c(NC(=O)c4ccc(O)c(CC=C(C)C)c4)c(=O)oc3c2C)OC1(C)C
A. class 1

New cases:
Q. Does this molecule meet the criterion viability, T/C < 90%? CC1COCCN1c1cc(C2(S(C)(=N)=O)CC2)nc(-c2ccnc3[nH]ccc23)n1 (stereo not given) + Nc1ccc(C#CCN(C(=O)Cc2ncc(C(F)(F)F)cc2C(F)(F)F)c2ccc(F)cc2)nn1
A. class 0

Q. Hello, I'm reviewing records and need to know if viability, T/C of COc1cccc(OCCCN)c1-c1cc(Nc2cnc(C#N)cn2)n[nH]1 + COC1C(OC(N)=O)C(O)C(Oc2ccc3c(O)c(NC(=O)c4ccc(O)c(CC=C(C)C)c4)c(=O)oc3c2C)OC1(C)C is below 90%. Could you check?
A. class 1

Q. Please state whether viability, T/C is below 90% for Nc1ccn(C2OC(CO)C(O)C2(F)F)c(=O)n1 (stereo not given) + Cc1cccc(N(C)C(=O)C2C(O)CCN2c2nc(C)cc(C(F)(F)F)c2C#N)c1
A. class 1
